The measured values listed here are drawn from ChEMBL document CHEMBL2163280.

# measured_on: Neuronal acetylcholine receptor; alpha2/beta4 (Rattus norvegicus, UniProt P12389+P12392)
# Sequence (P12389 whole entry): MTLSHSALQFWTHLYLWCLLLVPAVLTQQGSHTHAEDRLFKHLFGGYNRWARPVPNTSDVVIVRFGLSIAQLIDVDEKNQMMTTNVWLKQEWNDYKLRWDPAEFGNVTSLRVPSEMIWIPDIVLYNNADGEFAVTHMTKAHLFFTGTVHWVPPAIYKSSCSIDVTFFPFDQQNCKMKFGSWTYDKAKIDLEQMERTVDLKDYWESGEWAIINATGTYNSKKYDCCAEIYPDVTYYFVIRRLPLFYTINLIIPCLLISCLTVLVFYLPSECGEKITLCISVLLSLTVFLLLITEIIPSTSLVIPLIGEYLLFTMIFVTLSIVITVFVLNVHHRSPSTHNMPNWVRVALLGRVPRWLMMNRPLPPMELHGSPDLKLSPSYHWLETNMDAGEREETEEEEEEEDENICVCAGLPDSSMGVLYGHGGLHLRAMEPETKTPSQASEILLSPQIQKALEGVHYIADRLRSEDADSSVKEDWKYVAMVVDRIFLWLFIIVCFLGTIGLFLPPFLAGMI
# Sequence (P12392 whole entry): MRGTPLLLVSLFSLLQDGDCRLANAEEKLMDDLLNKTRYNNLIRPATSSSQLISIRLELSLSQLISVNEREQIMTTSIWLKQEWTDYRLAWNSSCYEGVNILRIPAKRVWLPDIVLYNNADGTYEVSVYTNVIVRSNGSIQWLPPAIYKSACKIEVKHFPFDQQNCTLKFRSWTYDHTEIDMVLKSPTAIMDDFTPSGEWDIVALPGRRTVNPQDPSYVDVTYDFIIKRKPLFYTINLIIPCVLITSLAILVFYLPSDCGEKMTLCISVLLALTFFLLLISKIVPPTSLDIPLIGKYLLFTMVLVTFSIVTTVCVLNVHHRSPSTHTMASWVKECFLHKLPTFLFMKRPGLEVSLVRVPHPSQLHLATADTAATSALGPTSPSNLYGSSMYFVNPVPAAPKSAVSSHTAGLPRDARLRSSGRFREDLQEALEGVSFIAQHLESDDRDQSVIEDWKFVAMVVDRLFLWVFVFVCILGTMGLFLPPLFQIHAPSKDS
# protocol: Displacement of [3H]epibatidine from rat alpha2beta4 nACHR
reported_property: pKi
Answers are plain numbers, as −log10 of the molar value.

Q) Please give the measured pKi for this molecule: "Cc1cc(OC[C@@H]2CCN2)on1"
A) 6.51

* * *

# measured_on: CYP2B6 (Homo sapiens)
# Sequence (P20813 whole entry): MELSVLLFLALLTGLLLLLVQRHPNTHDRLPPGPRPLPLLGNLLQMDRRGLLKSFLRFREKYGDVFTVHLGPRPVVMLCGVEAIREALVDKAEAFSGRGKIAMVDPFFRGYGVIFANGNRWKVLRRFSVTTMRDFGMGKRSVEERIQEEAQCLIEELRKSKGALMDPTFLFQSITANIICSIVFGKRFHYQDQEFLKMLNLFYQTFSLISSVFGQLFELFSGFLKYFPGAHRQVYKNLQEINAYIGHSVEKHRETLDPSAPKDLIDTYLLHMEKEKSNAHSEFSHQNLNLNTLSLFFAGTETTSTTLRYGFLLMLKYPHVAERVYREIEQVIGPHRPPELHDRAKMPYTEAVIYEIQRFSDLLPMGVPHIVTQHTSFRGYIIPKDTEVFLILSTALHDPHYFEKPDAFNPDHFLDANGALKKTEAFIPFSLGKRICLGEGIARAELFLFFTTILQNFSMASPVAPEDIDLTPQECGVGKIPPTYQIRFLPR
# protocol: Inhibition of human liver microsome CYP2B6 using bupropion as substrate assessed as residual activity at 10 uM
# Format: ADME
# particulars: human liver microsomes, probe bupropion, read-out: Activity
reported_property: activity at 10 µM

Q) Please give the measured activity at 10 µM for this compound: "Cc1cc(OC[C@@H]2CCN2)on1"
A) < 70%
